Test: supercomplex reporter luminescence per Hoechst cell count – Hoechst nuclei count (AID 1645838);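 note: control cybrid cells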;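 for z-score: higher means more mitochondrial supercomplex formation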
Conditions: Cells, luminescence/Hoechst cell count ratio, library stock concentration (final well concentration not given) 80 uM, stronger effect = higher value
The whole screen tested about 2,000 compounds, of which about 100 (5%) were called active. The sample holds actives, similar compounds and a random draw of the others, so the mix is not that of the screen.
readout.label: z-score
Number only, please.

Examples from the recorded data:
Problem: Tell me the measured z-score of Cc1ccc(COC(=O)N2CCC(CNc3ncccn3)C(F)C2)cc1 (stereo not given) , please.
Solution: -0.136

Problem: # query: z-score of entry COc1cc(NS(C)(=O)=O)ccc1Nc1c2ccccc2nc2ccccc12
Solution: 0.627

Problem: Query (compound): CCCC(NC(C)C(=O)N1C(C(=O)O)C[C@H]2CCCC[C@@H]21)C(=O)OCC (stereo not given in full) ; field requested: z-score
Solution: -0.394

Problem: For the compound NC(=O)c1cnc(NC2CCCCC2N)nc1Nc1cccc(-n2nccn2)c1 (stereo not given) , what z-score is on record?
Solution: -0.155

Others:
Problem: Return reported z-score; argument: COc1ccc(C2(O)CCC(N3CCC(NC(=O)CNC(=O)c4cccc(C(F)(F)F)c4)C3)CC2)cn1 (stereo not given)
Solution: 0.226

Problem: z-score for C#C[C@]1(O)CC[C@@H]2[C@@H]3CCc4cc(O)ccc4[C@@H]3CC[C@@]21C ?
Solution: -0.386

Problem: Quick one: z-score for CCCC(=O)Nc1nc(-c2ccccc2)cc(-c2ccccc2)n1 ?
Solution: -0.0977

Problem: Look up z-score: COc1cc(C(=O)NS(=O)(=O)c2ccccc2C)ccc1Cc1cn(C)c2ccc(NC(=O)OC3CCCC3)cc12
Solution: -0.186

Problem: May I ask what z-score has been recorded for CCCCc1ccc(O)cc1O ?
Solution: -0.0561

Problem: Entry CC(C)(C)CCN1C[C@@H]2C(CNC(=O)c3cc(Cl)cc(Cl)c3)[C@@H]2C1 (stereo not given in full) has what z-score?
Solution: 0.249

Problem: Consider the compound shown here: O=C(Nc1ccc(S(=O)(=O)Nc2ccccc2Cl)c(Cl)c1)c1ccccn1 What is its recorded z-score?
Solution: -0.0523

Problem: Given Cn1cc(CNCC2CCN(c3ncc(C(=O)NO)cn3)CC2)c2ccccc21 , state its recorded z-score.
Solution: 10.5

Problem: What measured z-score goes with Cc1cc(-c2ccccc2)nc2cc(C(=O)Nc3cccc(O)c3)nn12 ?
Solution: 0.0171

Problem: Could you tell me which z-score is on file for CCN(C)C(=O)Oc1cccc(C(C)N(C)C)c1 (stereo not given) ?
Solution: -0.403

Problem: What value of measured z-score is listed for CC(CSC(=O)c1ccccc1)C(=O)N1CC(Sc2ccccc2)CC1C(=O)O (stereo not given) ?
Solution: -0.846

Problem: Name the recorded z-score for CS(=O)(=O)N1CCN(Cc2cc3nc(-c4cccc5[nH]ncc45)nc(N4CCOCC4)c3s2)CC1 .
Solution: 0.147

###

Assay: supercomplex reporter luminescence per Hoechst cell count – Hoechst nuclei count (AID 1645838);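 note: control cybrid cells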
Settings: Cells, luminescence/Hoechst cell count ratio, measured here: cell number, Hoechst nuclei count, library stock concentration (final well concentration not given) 10 mM
Out of some 2,000 compounds screened, about 100 (5%) were called active. The sample as a whole holds a higher share of actives than the screen did. Positions of bridges follow the written chain, without caps; N, C: chain ends. Non-standard residues stand in square brackets, D forms with d. Residues, ends and D or L forms follow the SMILES beside them. hArg = N=C(N)NCCCC[CH](N)C(=O)O; Mpa = O=C(O)CCS
# reported cell count; entries follow
Note: the reply should be a number with no unit written.

Problem: Consider the compound COCC(c1ccc(C(F)(F)F)cc1)N1CCN(C2(C)CCN(C(=O)c3c(C)ncnc3C)CC2)CC1C (centres undefined) and give its measured cell count.
Solution: 5030

New cases:
Problem: Tell me the measured cell count of COc1cc(NC(=O)c2ccc(-c3ccc(Cl)cc3)o2)cc(OC)c1 , please.
Solution: 6710

Problem: So what's the measured cell count for this one? Cc1nc(Nc2ncc(C(=O)Nc3c(C)cccc3Cl)s2)cc(N2CCN(CCO)CC2)n1
Solution: 1700

Problem: Fill in the blank: the reported cell count of NC(=O)C1CSSCCC(=O)NC(CCCCN=C(N)N)C(=O)NCC(=O)NC(CC(=O)O)C(=O)NC(Cc2c[nH]c3ccccc23)C(=O)N2CCCC2C(=O)N1 (centres undefined) ([Mpa][hArg]GDWPC-NH2; disulfide 1-7; configuration not given here) is ____.
Solution: 5820

Problem: Please look up its cell count: COc1cccc(-c2ccc(NC(=O)C3=C(C(=O)O)CCC3)c(F)c2)c1
Solution: 3760

Problem: Quick one: cell count for CC1CN(CC(=O)Nc2ccc3c(c2)Cc2cccc(-c4cc(=O)cc(N5CCOCC5)o4)c2S3)CC(C)O1 (centres undefined) ?
Solution: 1840

Problem: Field request: cell count | item: COc1cc(=C2C=c3ccccc3=N2)[nH]c1=Cc1[nH]c(C)cc1C
Solution: 1560

Problem: // cell count lookup, key: CCC(NC(=O)c1c(C)c(-c2ccccc2)nc2ccccc12)c1ccccc1 (centres undefined)
Solution: 5870

Problem: Which measured cell count value corresponds to CC(C)C1C(=O)NC(CCCN=C(N)N)C(=O)NCC(=O)NC(CC(=O)O)C(=O)NC(Cc2ccccc2)C(=O)N1C (centres undefined) ?
Solution: 1780

Problem: Find the recorded cell count belonging to Cn1cc(C=C2C(=O)Nc3cccnc32)c2ccccc21 and report it.
Solution: 4520

Problem: Look up cell count: COc1ccc(C(=O)C(=O)c2ccc(OC)cc2)cc1
Solution: 5880
